B1: LINE1-full (parent)
chain: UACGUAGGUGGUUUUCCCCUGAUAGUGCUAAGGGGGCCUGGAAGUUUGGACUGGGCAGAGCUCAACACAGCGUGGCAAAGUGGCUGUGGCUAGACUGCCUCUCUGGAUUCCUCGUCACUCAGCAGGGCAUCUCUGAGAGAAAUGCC

- Variants of: B1
- procedure-summary: self-cleavage, relative activity (ratio to wild type); higher = more cleavage; in vitro, sequencing; the parent is a self-cleaving ribozyme
Parameter threshold = 0.7. Response is label 1 when self-cleavage meets or exceeds it, else label 0.

Given UACGUAGGUGGUUUUCCCCUGAUAGUGCUAAGGGGGCCUGGAAGUUUGGACUAGGCAGAGCUCAACACAGCGUGGCAAAGUGGCUGUGGCCAGACUGCCUCUCUGGAUUCCUCGUCACUCAGCAGGGCAUCUCUGAGAGAAAUGCC [G53A U91C] , state whether its self-cleavage is at least 0.7.
label 0

Identify whether the reported self-cleavage of the following variant is 0.7 or greater: UACGUAGGUGGUUUUCCCCUGAUAGUGCUAAGGGGGCCUGGAAGUUUGGACUGGGCAGAGCACAACACAGCGUGGCAAAGUGGCUGUGGCUGGACUGCCUCUCUGGAUUCCUCGUCACUCAGCAGGGCAUCUCUGAGAGAAAUGCC [U62A A92G]
label 0

Is the recorded value of self-cleavage equal to or greater than 0.7 for this variant? UGCGUAGGUGGUUUUCCCCUGAUAGUGCUAAGGGGGGCUGGAAGUUUGGACUGGGCAGAGCUCAACACAGCGUGGCAAAGUGGCUGUGGCUAGACUGCCUCUCUGGAUUCCUCGUCACUCAGCAGGGCAUCUCUGAGAGAAAUGCC [A2G C37G]
label 1

Is self-cleavage for UACGUAGGUGGUUUUCCCCUGAUUGUGCUAAGGGGGCCUGGAAGUUUGGACUGGGCAGAGCUCAACACAGCGUGGCAAAGUGGCUGUGGCUAGACUGCCUCUCUGGAUUCCUCGUCACUCAGCAGGGCAUCUCUGAGGGAAAUGCC [A24U A138G] at or above 0.7?
label 1

Could you please find out whether UACGUAGGUGGUUUUCCCCUGAUAGUGCUAAGGGGGCGUGGAAGUUUGGACUGGGCAGAGCUCAACACAGCGAGGCAAAGUGGCUGUGGCUAGACUGCCUCUCUGGAUUCCUCGUCACUCAGCAGGGCAUCUCUGAGAGAAAUGCC [C38G U73A] has self-cleavage that meets 0.7 or exceeds it?
label 1

hey, is self-cleavage for this one >= 0.7? UACGUAGGUGGUCUUCCCCUGAUAGUGCUAAGGGGGCCUGGAAGUUUGGAGUGGGCAGAGCUCAACACAGCGUGGCAAAGUGGCUGUGGCUAGACUGCCUCUCUGGAUUCCUCGUCACUCAGCAGGGCAUCUCUGAGAGAAAUGCC [U13C C51G]
label 1

Kindly determine if self-cleavage recorded for UACGUAGGUGGUUUUCCCCUGAUAGUGCUAAGGGGGCCUGGAAGUUUGGACUGGGCAGAGCUCAACACAGCGAGGCAAAGUGGCUGUGGCUAGACUGCCUCUCUGGAUUCCUCGUCACUCAGCAGGGCAUCUCUGGGAGAAAUGCC [U73A A136G] is above or exactly 0.7.
label 1

Evaluate UACGUAGGUGGUUUUCCCCUGAUAGUGCUAAGGGGGCCGGGAAGUUUGGACCGGGCAGAGCUCAACACAGCGUGGCAAAGUGGCUGUGGCUAGACUGCCUCUCUGGAUUCCUCGUCACUCAGCAGGGCAUCUCUGAGAGAAAUGCC [U39G U52C] : self-cleavage at minimum 0.7?
label 0

Hi team, for UACGUAGGUGGUUUUCCCCUGAUAGUGCUAAGGGGGCCUGGAAGUCUGGACUGGGCAGAGCUCAACACAGCGUGGCAAAGUGGUUGUGGCUAGACUGCCUCUCUGGAUUCCUCGUCACUCAGCAGGGCAUCUCUGAGAGAAAUGCC [U46C C84U] , is the recorded self-cleavage at or above 0.7?
label 0

Decide: is the reported value of self-cleavage for UACGUAGGUGGUUUUCCCCUGAUAGUGCUAAGGGGGCCUGGAAGUUUGGACUGGGCAGAGCUCAACGCAGCGUGGCAAAGUGGCUGUGGCUAGACUGCCUUUCUGGAUUCCUCGUCACUCAGCAGGGCAUCUCUGAGAGAAAUGCC [A67G C101U] equal to or greater than 0.7?
label 1

Evaluate UACGUAGGUGGUUUUCCCCUGUUGGUGCUAAGGGGGCCUGGAAGUUUGGACUGGGCAGAGCUCAACACAGCGUGGCAAAGUGGCUGUGGCUAGACUGCCUCUCUGGAUUCCUCGUCACUCAGCAGGGCAUCUCUGAGAGAAAUGCC [A22U A24G] : self-cleavage at minimum 0.7?
label 1

Hi team, for UACGUAGGUGGUUUUCCCCUGAUAGUGCUAAGGGGGCCUGGAAGUUUGGACUGGGCAGAGCACAACACAGCGUGGCAAAGUGGCUGUGGCUAGACUGCCUCUCUGGAUUCCUCGUCCCUCAGCAGGGCAUCUCUGAGAGAAAUGCC [U62A A117C] , is the recorded self-cleavage at or above 0.7?
label 0

Does UAGGUAGGUGGUUUUCCCCUGAUAGUGCUAAGGGGGCCUGGAAGUUUGGACUGGGCAGAGCUCAACACAGCGUGGCAAAGUGGCUGUGGCUAGACUGCCUCUCUGGAUUCCUCGUCACUCAGCAGGGCAUCUCUGAGAGAAAUGCC [C3G] have a reported self-cleavage of at least 0.7?
label 1

Quick check, self-cleavage >= 0.7? UACGUAGGUGGGUUUCCCCUGAUAGUGCUAAGGGGGCCUGGAAGUUUGGACUGGGCAGAGCUCAACACAGCGUGGCAAAGUGGCUGUGGCCAGACUGCCUCUCUGGAUUCCUCGUCACUCAGCAGGGCAUCUCUGAGAGAAAUGCC [U12G U91C]
label 1

// data source = the RNAGym collection of RNA variant scans (doi:10.7554/elife.90254)
